Hi there, I'd appreciate the recorded GI50 for every entry that follows.
test system: SF-268; assay: NCI tumour cell line growth inhibition, 48 h
Calls of active or inactive are those of the source. Rule as the data show it: active = GI50 up to about 1.1 µM and inactive = higher.

Recorded GI50, per entry:
ON=C1CCC(c2ccccc2)CC1 (centres undefined) :: > 100 µM (inactive)
O=[N+]([O-])C(=C(N1CCCCC1)N1CCCCC1)/C(Cl)=C(\Cl)[N+](=O)[O-] :: 12.1 µM (inactive)
CCCCSN1C(=O)c2ccccc2C1=S :: 48.9 µM (inactive)
O=C(O)COc1ccc(C(=O)/C(SS/C(C(=O)c2ccc(OCC(=O)O)c(Cl)c2Cl)=C2\C=C(c3ccc(Cl)cc3)SS2)=C2/C=C(c3ccc(Cl)cc3)SS2)c(Cl)c1Cl :: 11.2 µM (inactive)
COc1ccc2cc1Oc1ccc(cc1)CC1c3cc(c(OC)cc3CCN1C)Oc1c3c(cc4c1C(C2)N(C)CC4)OCO3 (centres undefined) :: 8.36 µM (inactive)

Lab note: each compound below needs its GI50 filled in.
1. CCN(CC)C1CC(n2cc(C)c(=O)[nH]c2=O)OC1CO (centres undefined)
2. CCOC(=O)CCN1C(=O)c2c(NC(=O)C(=O)O)cccc2S1(=O)=O
3. CC1=C2C(c3ccccc3)(c3ccccc3)C3C=CC2(C=N3)N(C(=O)NC2CCCCC2)C1=O (centres undefined)
4. O=C(Nc1ccccc1C(=O)NCCCO)/C(=C/c1ccccc1O)NC(=O)c1ccccc1

1. > 100 µM (inactive)
2. > 100 µM (inactive)
3. 17.4 µM (inactive)
4. 35.6 µM (inactive)

---

tested on: HOP-62; assay: NCI tumour cell line growth inhibition, 48 h
The source made the active and inactive calls. Rule as the data show it: active = GI50 up to about 1.1 µM and inactive = higher.
value-type: GI50

Solved entries (count: 6):
c1ccc([P+](c2ccccc2)(c2ccccc2)c2ccc([P+](c3ccccc3)(c3ccccc3)c3ccccc3)c3ccccc23)cc1 :: > 100 µM (inactive)
Cc1cc(C(=C2C=CC(=[N+](C)C)C=C2)c2ccc([N+](C)(C)C)cc2)ccc1N(C)C :: 25.2 µM (inactive)
Cc1ccc(SCC(=O)C2=C(O)CCCC2=O)cc1 :: > 100 µM (inactive)
CCOC(=O)CC(N1CC1)N1CC1 :: > 10 µM (inactive)
OCC1C(O)C(O)[C@@H]2SCCN12 (some centres undefined) :: > 100 µM (inactive)
CN(C)C(=S)Oc1ccc2ccc(=O)oc2c1 :: > 100 µM (inactive)

Report GI50 for every entry below.
1. O=C1OC(c2ccc([N+](=O)[O-])cc2)=N/C1=C\c1ccc(O)cc1
2. CN(C)CCNC(=O)c1cccc2ncc(-c3ccccc3)nc12
3. CN(C)S(=O)(=O)n1ccnc1

["> 100 µM (inactive)", "9.25 µM (inactive)", "> 100 µM (inactive)"]

Please give GI50, item by item, for the list that follows.
1. CCc1cccc(C)c1NC(=O)NS(=O)(=O)c1ccc(C)cc1
2. CCc1c(-c2ccc(OC)cc2)oc(OC)c(C)c1=O
3. CCN(CC)CCCCC1CCN(CC(=O)N2CC(C)C(=O)Nc3ccccc32)CC1 (centres undefined)
4. COc1cccc(/C=C2\CCC(CN(C)C)C2=O)c1 (centres undefined)
5. CN(C)c1ccc(/C=C(\NC(=O)c2ccccc2)c2nn(C)c(=O)o2)cc1

["> 100 µM (inactive)", "> 100 µM (inactive)", "> 100 µM (inactive)", "12.1 µM (inactive)", "18.1 µM (inactive)"]
